test target: Transcriptional activator Myb (Homo sapiens)
experimental protocol: ATG_Myb_CIS: Attagene CIS-FACTORIAL HepG2 Assay for human Myeloblastosis (Myb) Proto-Oncogene Transcription Factor (AID 2282986)
experimental context: HepG2 Attagene CIS-FACTORIAL Myb reporter transcription; actives raise or lower the signal
The source made the active and inactive calls. Rule for the calls: active = hit-call score of the fitted dose curve at least 0.9, where 1 is the maximum; inactive = score below 0.9.
experimental readout: outcome

Known outcome results, listed for orientation:
In [3]: df
Out[3]:
                            molecule_smiles  recorded_value
0  COCCOc1cc2cc(C(=O)NC3CCN(C(C)C)CC3)n(CC(=O)Nc3ccc(Cl)cn3)c2cn1        inactive
1              CN(C)c1ccc(N=NS(=O)(=O)O)cc1        inactive
2  CCN(C(=O)c1cc(C)cc(OC[C@H](C)Nc2ccncc2)c1)C(C)C        inactive
3                              Nc1cccc(N)c1        inactive
4                                 CCCCCCCCO        inactive
5                               CCCC(=O)OCC        inactive
6  O=C(O)CCN(C1(C(=O)NO)CCCC1)S(=O)(=O)c1ccc(Oc2ccc(F)cc2)cc1        inactive
7           C[C@](N)(Cc1ccc(O)c(O)c1)C(=O)O        inactive

# context switch: different compound, same outcome
IN: Could you tell me which outcome is on file for CCOCCOCCOCCO ?
OUT: inactive

* * *

experimental protocol: APR_HepG2_CellCycleArrest_72hr: Apredica 72-hour HepG2 Assay for Cell Cycle Arrest (AID 2282914)
experimental context: high-content imaging, actives raise or lower the signal
Calls of active or inactive are those of the source. Rule for the calls: active = hit-call score of the fitted dose curve at least 0.9, where 1 is the maximum; inactive = score below 0.9.
experimental readout: AC50

Consider the reported AC50 for these molecules:
>>> df
                                   molecule    recorded_value
0  CCOc1cccc(-n2cc(C(=O)N3CCN(c4cc(C(=O)O)c5ccccc5c4)CC3)nc2-c2ccc(C)cc2)c1    96 µM (active)
1                               O=C1CCCCCN1          inactive
2                         C=CCCCCCCCCC(=O)O          inactive
3                        C1N2CN3CN1CN(C2)C3          inactive
4  COc1ccc(/C=C/S(=O)(=O)NC(=O)c2ccc(C)cc2Cl)cc1          inactive
5           CN(C)c1ccc(Cc2ccc(N(C)C)cc2)cc1  50.8 µM (active)

IN: Fill in the blank: the reported AC50 of COCCOCCOCCOC is ____.
OUT: inactive

IN: Entry under review: COC(=O)c1ccccc1O . Reported AC50?
OUT: inactive

* * *

Read-out: Collagen III, COL3A1 (gene 1281)
experimental protocol: BSK_hDFCGF_CollagenIII: BioMAP Diversity Plus: hDFCGF Assay for Collagen III Biomarker Activity (AID 2283056)
experimental context: primary human foreskin fibroblasts; actives raise or lower the signal
Calls of active or inactive are those of the source. The calls were made as follows: active = hit-call score of the fitted dose curve at least 0.9, where 1 is the maximum; inactive = score below 0.9.
experimental readout: AC50

compound	experimental readout	recorded value
CC(=O)OC[C@H]1O[C@@](COC(C)=O)(O[C@H]2O[C@H](COC(C)=O)[C@@H](OC(C)=O)[C@H](OC(C)=O)[C@H]2OC(C)=O)[C@@H](OC(C)=O)[C@@H]1OC(C)=O	AC50	inactive
O=C1CCC(N2C(=O)c3ccccc3C2=O)C(=O)N1 (stereo not drawn)	AC50	inactive
CC(=O)OCCC(C)C	AC50	inactive
Cc1ccc(S(=O)(=O)O)cc1C	AC50	inactive

IN: I'd like to know its AC50. The compound in question is COCCOc1cc2cc(C(=O)NC3CCN(C(C)C)CC3)n(CC(=O)Nc3ccc(Cl)cn3)c2cn1
OUT: inactive

IN: Quick one: AC50 for CN(C)c1ccc(N=NS(=O)(=O)O)cc1 ?
OUT: 4.35 µM (active)

IN: Consider the compound shown here: O=C(CCCCCCCCc1cccnc1)N1CCC(C=C(c2ccccc2)c2ccccc2)CC1 What is its recorded AC50?
OUT: 4.91 µM (active)

IN: For CC1=CC(=O)CC(C)(C)C1 , what is its reported AC50?
OUT: inactive

* * *

experimental protocol: BSK_3C_VCAM1: BioMAP Diversity Plus: 3C Assay for Vascular cell adhesion molecule 1 (VCAM1) Biomarker Activity (AID 2282999)
experimental context: BioMAP 3C HUVEC, VCAM1 ELISA, cytokine-stimulated; actives raise or lower the signal
The source made the active and inactive calls. How the source made its calls: active means hit-call score of the fitted dose curve at least 0.9, where 1 is the maximum; inactive means score below 0.9.
experimental readout: AC50

Past entries and their recorded results:
compound	AC50
CC[C@H]1OC(=O)[C@H](C)[C@@H](O[C@H]2C[C@@](C)(OC)[C@@H](O)[C@H](C)O2)[C@H](C)[C@@H](O[C@@H]2O[C@H](C)C[C@H](N(C)C)[C@H]2O)[C@](C)(O)C[C@@H](C)C(=O)[C@H](C)[C@@H](O)[C@]1(C)O	inactive
Cc1ccc(N)cc1O	inactive
CC(=O)OC[C@H]1O[C@@](COC(C)=O)(O[C@H]2O[C@H](COC(C)=O)[C@@H](OC(C)=O)[C@H](OC(C)=O)[C@H]2OC(C)=O)[C@@H](OC(C)=O)[C@@H]1OC(C)=O	inactive
COC(=O)c1ccccc1O	inactive
Clc1nc(Cl)c(Cl)c(Cl)c1Cl	16.5 µM (active)

IN: Quick check: AC50 of CC(=O)OCCC(C)C ?
OUT: inactive

IN: Name the recorded AC50 for CC[C@H](C)C(=O)O[C@H]1C[C@@H](C)C=C2C=C[C@H](C)[C@H](CC[C@@H]3C[C@@H](O)CC(=O)O3)[C@H]21 .
OUT: 33.7 µM (active)

* * *

experimental protocol: Tanguay_ZF_120hpf_BRAI_legacy: (Legacy) Oregon State University Tanguay Lab 120 Hour Post-fertilization zebrafish Assay for Brain Malformation (AID 2283641)
Inconclusive results are not listed. The source made the active and inactive calls. The calls were made as follows: active = hit-call score of the fitted dose curve at least 0.9, where 1 is the maximum; inconclusive = response in the unintended direction; inactive = score below 0.9.
A correct response names exactly one class from active, inactive

IN: Call for entry O=C(CCCCCCCCc1cccnc1)N1CCC(C=C(c2ccccc2)c2ccccc2)CC1 :
OUT: inactive

IN: How was COc1cccc(-c2ccc(/C=C\CN3CCCCCC3)cc2Cl)c1 classified in this test?
OUT: inactive

IN: Hi, do you know how CC(=O)OC[C@H]1O[C@@](COC(C)=O)(O[C@H]2O[C@H](COC(C)=O)[C@@H](OC(C)=O)[C@H](OC(C)=O)[C@H]2OC(C)=O)[C@@H](OC(C)=O)[C@@H]1OC(C)=O came out in this test?
OUT: inactive

IN: Hey, what did the test say about COC(=O)CC(=O)OC ?
OUT: inactive

IN: Outcome? CCOCCO
OUT: inactive

IN: Hi, sorry to bother you, what did the test record for CCCCCCc1ccc(O)cc1O ?
OUT: inactive

IN: Call for entry Cc1ccc(C)c(O)c1 :
OUT: inactive

IN: // return assay outcome for COC(=O)c1ccccc1O
OUT: inactive

IN: Would you mind telling me which call this test gave COCCOc1cc2cc(C(=O)NC3CCN(C(C)C)CC3)n(CC(=O)Nc3ccc(Cl)cn3)c2cn1 ?
OUT: inactive

IN: For this molecule, state the assay outcome: CC(C)CCCCCCCOC(=O)CCCCC(=O)OCCCCCCCC(C)C
OUT: inactive

IN: Which outcome was assigned to CCC(C)(C)C(=O)O[C@H]1C[C@@H](C)C=C2C=C[C@H](C)[C@H](CC[C@@H]3C[C@@H](O)CC(=O)O3)[C@H]21 in this test?
OUT: active

IN: Outcome logged for CNCc1ccc(NC(=O)c2c[nH]c3c2C(=O)CCC3)cc1 in this assay:
OUT: inactive

IN: What is the recorded call for this molecule in the test? O=C(O)CCN(C1(C(=O)NO)CCCC1)S(=O)(=O)c1ccc(Oc2ccc(F)cc2)cc1
OUT: inactive

IN: Call for entry C[C@](N)(Cc1ccc(O)c(O)c1)C(=O)O :
OUT: inactive

IN: Kindly provide the recorded test outcome for the following molecule: CCCN(C1CCN(C(=O)C2CCNCC2)CC1)[C@@H]1CCc2ccc(OC)cc2C1
OUT: inactive

IN: What call does the record list for CCCCCCCCCCCCCCCO ?
OUT: inactive

IN: Per the assay record, what outcome was assigned to CCCCCCCCO ?
OUT: inactive

IN: Tell me the assay call for O=C1CCCCCN1 please.
OUT: inactive

IN: Status in this test for Cc1[nH]cnc1C[C@H]1CCc2c(C)c3ccccc3n2C1=O ?
OUT: inactive

IN: Assay outcome for NC(=O)NO : what was it?
OUT: inactive

IN: Hi team, can someone confirm the assay call for CCOc1cccc(-n2cc(C(=O)N3CCN(c4cc(C(=O)O)c5ccccc5c4)CC3)nc2-c2ccc(C)cc2)c1 ?
OUT: inactive

IN: For this molecule, state the assay outcome: CC(O)CN(CCN(CC(C)O)CC(C)O)CC(C)O (configuration not stated)
OUT: inactive

IN: Tell me the assay call for CCCC(=O)OCC please.
OUT: inactive

IN: Status in this test for On1ccccc1=S ?
OUT: inactive

IN: Given CCCCC(CC)COC(=O)CCCCCCCCC(=O)OCC(CC)CCCC (configuration not stated) , state the outcome it received in this test.
OUT: inactive

IN: Fill in: this test's call for O=C(O)c1cccc(Oc2ccccc2)c1 is ___
OUT: inactive

IN: Per the records of this test, what outcome belongs to CC(C)=CCCC(C)=CC=O ?
OUT: inactive

IN: What was the test verdict on C1=CCCC=CCCC=CCC1 ?
OUT: inactive

IN: Please let me know the test result on file for CCN(C(=O)c1cc(C)cc(OC[C@H](C)Nc2ccncc2)c1)C(C)C .
OUT: inactive

IN: Could you kindly confirm the outcome this assay logged for O=C(OC[C@H]1O[C@@H](OC(=O)c2cc(O)c(O)c(OC(=O)c3cc(O)c(O)c(O)c3)c2)[C@H](OC(=O)c2cc(O)c(O)c(OC(=O)c3cc(O)c(O)c(O)c3)c2)[C@@H](OC(=O)c2cc(O)c(O)c(OC(=O)c3cc(O)c(O)c(O)c3)c2)[C@@H]1OC(=O)c1cc(O)c(O)c(OC(=O)c2cc(O)c(O)c(O)c2)c1)c1cc(O)c(O)c(OC(=O)c2cc(O)c(O)c(O)c2)c1 ?
OUT: inactive

IN: GET /call?item= COc1ccc(-n2nc(C(F)F)cc2-c2ccc(S(C)=O)cc2)cc1 (configuration not stated) returns the recorded outcome of this test.
OUT: active

IN: Status in this test for C=CCCCCCCCCC(=O)O ?
OUT: inactive

IN: What call does the record list for COCCOCCOCCOC ?
OUT: inactive

IN: Hi, do you know how CC(C)(O)c1coc(S(=O)(=O)NC(=O)Nc2c3c(cc4c2CCC4)CCC3)c1 came out in this test?
OUT: inactive

IN: Write down the call the test reported for this molecule. Item: CCOC(=O)CC(CC(=O)OCC)(OC(C)=O)C(=O)OCC
OUT: inactive

IN: Answer briefly: the call reported for COc1ccc(/C=C/S(=O)(=O)NC(=O)c2ccc(C)cc2Cl)cc1 in this assay.
OUT: inactive

IN: What classification did Cn1c(=O)c2c(ncn2C)n(C)c1=O end up with in this test?
OUT: inactive

IN: Could you kindly confirm the outcome this assay logged for CC1(C)C(=O)N(Br)C(=O)N1Br ?
OUT: inactive

IN: Query: recorded result category for CCOCCOCCOCCO in this test
OUT: inactive

IN: What classification did C=CC(=C)CCC=C(C)C end up with in this test?
OUT: inactive

IN: What outcome does the record of this test show for CCc1cc(SCc2sc(-c3ccc(C(F)(F)F)cc3)nc2CN2CCN(c3ccc(OC)cc3)CC2)ccc1OCC(=O)O ?
OUT: inactive

IN: State the result this test recorded for COc1ccc2sc(C(=O)Nc3nnn[nH]3)c(OC(C)C)c2c1 .
OUT: inactive

IN: What classification did CCOC(=O)c1ccc(C2CCC(NC[C@H](O)COc3ccc(O)c(NS(C)(=O)=O)c3)CC2)cc1 (some centres not stated) end up with in this test?
OUT: inactive

IN: Which outcome was assigned to CC(C)CCO in this test?
OUT: inactive

IN: Could you please tell me the result logged for O=c1[nH]c2ccc(S(=O)CCN3CCC(Cc4ccc(F)cc4)CC3)cc2o1 (configuration not stated) in this assay?
OUT: inactive

IN: Could you kindly confirm the outcome this assay logged for Cn1c(=O)cc(Oc2ccc(F)cc2F)c2cnc(NCC(C)(C)O)nc21 ?
OUT: inactive

IN: Identify the outcome logged in this assay for the molecule shown: CNS(=O)(=O)c1cc(C(=O)N2CCC(CCN3C4CCC3CC(n3c(C)nc5ccccc53)C4)(c3cccc(F)c3)CC2)c(Cl)cc1F (configuration not stated)
OUT: inactive

All figures here come from PubChem BioAssay (EPA / NIEHS).
